system: Wolbachia pipientis; experiment: Anti-Wolbachia Cell-Based Screen; assay type: functional; design: scale not given: in the data most compounds retested in dose-response had high values; settings: 5 µM
About 13,000 (27%) of roughly 48,000 compounds showed an effect of 50% or more. Some of the results follow.
Readings of Percent Effect for the listed compounds
Readout Label: Percent Effect (%)

Compound | Assay Target | Val
Cc1noc(C)c1CN1CCc2ncnc(-c3ccoc3)c2CC1.O=C(O)C(F)(F)F | Wolbachia pipientis | 108.1
CN(C)CC(=O)N1CCCC1c1cncc(Oc2ccc(F)cc2)n1 (stereo not given) | Wolbachia pipientis | 102.5
Cc1nc(CN2CCc3ncnc(-c4ccncc4)c3CC2)cs1.O=C(O)C(F)(F)F.O=C(O)C(F)(F)F | Wolbachia pipientis | -2.21
Cc1nc(CC(=O)NCCN2CCC(c3ccccc3C)C2)cs1 (stereo not given) | Wolbachia pipientis | -10.54
COc1ccc2c(=O)n(CC3CCCCN3C)ccc2c1OC (stereo not given) | Wolbachia pipientis | -25.61
CN1CCC2(Cc3ccccc3CN(C(=O)Cc3cccc(Cl)c3)C2)C1 (stereo not given) | Wolbachia pipientis | 135.8
O=C(c1ccco1)N1CCC2(CCOC2)C1 (stereo not given) | Wolbachia pipientis | 5.675
O=C(O)C(F)(F)F.O=C(O)C(F)(F)F.c1ccc(CN2CCc3ncnc(-c4ccncc4)c3CC2)nc1 | Wolbachia pipientis | -25.56
Cc1nn(C)c2nc(N3CCC(C(O)c4ccccn4)CC3)sc12 (stereo not given) | Wolbachia pipientis | -0.6588
Cc1noc(C)c1CN1CCc2ncnc(-c3ccccc3)c2CC1.O=C(O)C(F)(F)F | Wolbachia pipientis | 91.91
Cc1ccc([C@H]2CN(C(C)C)C[C@@H]2NS(=O)(=O)N2CCOCC2)o1 | Wolbachia pipientis | -9.511
O=C(NCCN1CCC(c2cccs2)CC1)c1ccccc1C(F)(F)F | Wolbachia pipientis | 6.812
CCCN1CCC(NC(=O)c2csc(C)c2-c2ccccc2)CC1 | Wolbachia pipientis | 2.697
COCCC(=O)N1CCC2(CN(Cc3cccc(Cl)c3)C2)C1 | Wolbachia pipientis | 20.7
O=c1c2cccc(C(F)(F)F)c2ncn1C1CCNC1 (stereo not given) | Wolbachia pipientis | -5.057
O=C(O)C(F)(F)F.O=C(c1ccco1)N1CCCC2(CCN(c3nncs3)C2)C1 (stereo not given) | Wolbachia pipientis | 102.9
COC(=O)CN1CCN(c2nc3c(s2)c(C)nn3C)C(C)C1=O (stereo not given) | Wolbachia pipientis | -10.29
O=C(O)C(F)(F)F.c1nc2c(c(-c3ccsc3)n1)CCN(Cc1ccoc1)CC2 | Wolbachia pipientis | -2.066
CCSc1ccccc1C(=O)NCCN1CCC(c2cccs2)CC1 | Wolbachia pipientis | 153.4
O=C(CCCOCc1ccccc1)N1CCCC1c1ccccn1 (stereo not given) | Wolbachia pipientis | -5.136
CC(=O)NCCN1CCC(c2cccs2)CC1 | Wolbachia pipientis | -11.86
CS(=O)(=O)c1ccc(-c2ccccc2C(=O)O)cc1 | Wolbachia pipientis | 122
CC(=O)N1CCCC1c1cncc(Oc2ccc(F)cc2)n1 (stereo not given) | Wolbachia pipientis | 97.95
CNC(=O)c1ccccc1-c1ccc(S(C)(=O)=O)cc1 | Wolbachia pipientis | 101.9
O=C(CCO)N1CCOC2(CCCN(C(=O)c3ccco3)C2)C1 (stereo not given) | Wolbachia pipientis | -2.214
O=C(c1ccco1)N1CCO[C@@H]2CN(c3ncc(F)cn3)CC[C@@H]2C1 | Wolbachia pipientis | -7.545
Cc1noc(C)c1CN1CCc2ncnc(-c3ccncc3)c2CC1.O=C(O)C(F)(F)F.O=C(O)C(F)(F)F | Wolbachia pipientis | 90.01
CS(=O)(=O)c1ccc(CNC(=O)NCc2cc[nH]n2)cc1 | Wolbachia pipientis | 1.077
COc1ccc(C2CCCN2C(=O)Nc2ccc(OC)nc2)cc1 (stereo not given) | Wolbachia pipientis | 2.775
CCN(CCn1cccn1)Cc1nc(-c2ccccc2F)oc1C | Wolbachia pipientis | 1.604
O=C(c1ccoc1)N1CCC2(C1)CN(c1ncc(F)cn1)C2 | Wolbachia pipientis | 0.03212
O=C(Cc1ccccc1Cl)NCCN1CCC(c2cccs2)CC1 | Wolbachia pipientis | 167.3
CN(Cc1ccccn1)C(=O)c1cc(CN2CCC(O)CC2)on1 | Wolbachia pipientis | -20.11
Cc1nn(C)c2nc(N3CCCCC3c3ccc(F)cc3)sc12 (stereo not given) | Wolbachia pipientis | 106.8
Cc1nn(C)c2nc(N3CCCC3c3nccs3)sc12 (stereo not given) | Wolbachia pipientis | 105.7
CCCNC(=O)c1cc2c([nH]c1=O)CC(c1cccs1)CC2=O (stereo not given) | Wolbachia pipientis | 1.208
O=C(Cc1ccccc1)N1CCC2(CC(=O)N(c3cccc(F)c3)C2)C1 (stereo not given) | Wolbachia pipientis | -7.146
COc1ccc(Oc2cncc(C3CCCN3C(C)=O)n2)cc1 (stereo not given) | Wolbachia pipientis | -16.34
COc1ccc(C(=O)NCC(=O)N(Cc2ccsc2)C2CC2)cc1OC | Wolbachia pipientis | -17.21
Cc1ncnc2c1CCN(CC1CCOC1)CC2.O=C(O)C(F)(F)F (stereo not given) | Wolbachia pipientis | 17.43

* * *

Catalogue of Percent Effect readings, one per entry.
system: Wolbachia pipientis; assay: Anti-Wolbachia Cell-Based Screen; format: functional; design: scale not given: in the data most compounds retested in dose-response had high values; conditions: 5 µM
The campaign covered roughly 48,000 compounds. About 13,000 (27%) showed an effect of 50% or more. Some of the results follow.
Readout Label: Percent Effect (%)

Compound | Val
O=C(N[C@@H]1CCC[C@@H](n2ccnc2)[C@@H]1O)c1ccc2c(c1)CCCC2 | 113.7
Cc1occc1C(=O)N1CC[C@@H]2[C@@H](CO[C@H]2CNS(C)(=O)=O)C1 | -7.18
COc1cccc2c1OCC(C(=O)N1Cc3ccccc3C1)C2 (stereo unspecified) | -46.74
O=C(CC1CC1)N[C@@H]1CN(c2ncccn2)C[C@@H]2CCCO[C@@H]21.O=C(O)C(F)(F)F | -2.682
O=C(Cc1ccc2c(c1)CCCC2)N[C@@H]1CC[C@@H](n2ccnc2)[C@@H]1O | 128.7
COc1ccc(F)cc1NC(=O)NCC1(CN2CCOCC2)CC1 | 21.38
CCNC(=O)c1ccnc(CC2COc3c(cccc3OC)C2)c1 (stereo unspecified) | 109.1
CCOCCC(=O)NCC1COc2c(cccc2OC)C1 (stereo unspecified) | -9.333
COc1cccc2c1OCC(CNC(=O)Cn1ccnc1C)C2 (stereo unspecified) | -7.516
C=C(C)COc1ccccc1CNCCc1c[nH]cn1 | -1.538
CCc1nc(CN(C)C(=O)c2cc(NC(C)=O)ccc2Cl)no1 | -10.82
O=C(NC1CCN(Cc2ccc(F)cc2)CC1)c1ccc2c(c1)CCC2 | -15.84
O=C(NC1CCN(c2cc(-n3ccnc3)ncn2)CC1)c1ccncc1 | 4.759
CNS(=O)(=O)CCCN1CCCCCC1c1ccc(C)o1 (stereo unspecified) | -40.39
CCc1oc(C(=O)N(C)Cc2ccncc2)cc1CN(CC)CC | 110.2
COc1cccc2c1OCC(C(=O)N1CCSCC1)C2 (stereo unspecified) | -0.8492
CNC(=O)c1ccnc(CC2COc3c(cccc3OC)C2)c1 (stereo unspecified) | 100.6
Cc1nc(N(C)Cc2cccc(O)c2)nc2cc(S(C)(=O)=O)ccc12 | -16.37
CCC(C)Oc1ccc(CNCCNS(C)(=O)=O)cc1Cl (stereo unspecified) | 97.61
Cc1ncsc1C(=O)N(C)Cc1ccncc1 | -15.3
O=C(c1cccc(F)c1)N(CCCO)S(=O)(=O)c1cccs1 | -5.785
COc1cccc2c1OCC(Cc1cc(C(N)=O)ccn1)C2 (stereo unspecified) | 86.97
Cc1ccc(CN2CCc3[nH]nc(C(=O)N4CCNC(=O)C4)c3C2)s1.O=C(O)C(F)(F)F | -6.156
CCn1cnnc1CCNC(=O)c1ccc(F)c(Br)c1 | -6.891
O=C(Cc1ccc2c(c1)CCC2)NC1CCN(Cc2ccccc2)CC1 | 7.244
O=C(CC1CC1)N[C@@H]1CN(C(=O)c2ccsc2)C[C@@H]2CCCO[C@@H]21 | 100.4
COc1ccccc1CN(C)C(=O)CN1C(=O)OC[C@@H]1c1ccccc1 | -5.71
Cc1ccc(C)c(OCc2cc(C(=O)N(C)Cc3nonc3C)no2)c1 | -9.317
O=C(CC1CC1)N[C@@H]1CN(C(=O)c2ccoc2)C[C@@H]2CCCO[C@@H]21 | 95.5
O=C(c1cc(=O)[nH]c(=O)[nH]1)N1CCCCC1c1ccc(F)cc1 (stereo unspecified) | -19.12
O=C(CC1CC1)N[C@@H]1CN(Cc2nccs2)C[C@@H]2CCCO[C@@H]21 | -7.838
COc1cccc2c1OCC(CNC(=O)Cc1csc(C(C)=O)c1)C2 (stereo unspecified) | -8.032
CC(CNCc1ccc(Cl)c(Cl)c1)Oc1ccccn1.Cl (stereo unspecified) | 9.6
CCC(C)Oc1ccc(CNCCc2c[nH]cn2)cc1Cl (stereo unspecified) | 95.83
O=C(NCCC1CN(C2CCCC2)CCO1)c1cc(=O)[nH]c(=O)[nH]1 (stereo unspecified) | 90.1
COc1cccc2c1OCC(Cc1cc(C(=O)N3CCCC3)ccn1)C2 (stereo unspecified) | 103.2
